- EXPERIMENTAL SYSTEM: CYP3A4 (Homo sapiens, UniProt P08684)
- Sequence (P08684 with tags, fused parts or gaps): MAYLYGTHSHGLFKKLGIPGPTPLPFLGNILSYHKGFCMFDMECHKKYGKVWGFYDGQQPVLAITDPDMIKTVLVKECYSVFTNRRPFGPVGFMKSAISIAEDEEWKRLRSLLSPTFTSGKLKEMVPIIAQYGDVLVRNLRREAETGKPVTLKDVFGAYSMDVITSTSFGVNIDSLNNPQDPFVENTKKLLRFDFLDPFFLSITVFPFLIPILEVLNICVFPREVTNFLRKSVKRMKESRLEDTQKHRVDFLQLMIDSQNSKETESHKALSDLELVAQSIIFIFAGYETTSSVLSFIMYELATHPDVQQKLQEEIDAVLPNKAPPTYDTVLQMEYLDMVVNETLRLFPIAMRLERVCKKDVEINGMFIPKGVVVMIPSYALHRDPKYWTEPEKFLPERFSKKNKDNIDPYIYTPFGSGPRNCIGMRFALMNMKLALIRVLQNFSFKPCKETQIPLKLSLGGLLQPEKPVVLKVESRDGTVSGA
- EXPERIMENT SUMMARY: Spectral binding (equilibrium) titrations of CYP3A4
- EXPERIMENTAL CONDITIONS: human, CYP3A4 protein solution (2 μM), pH 7.4, S50, no TEG; sigmoidal (Hill) fit

LINE NOTATION	EXPERIMENTAL SYSTEM	Kd (µM)
CC(=O)[C@H]1CC[C@H]2[C@@H]3CCC4=CC(=O)CC[C@]4(C)[C@H]3CC[C@]12C	CYP3A4 (Homo sapiens, UniProt P08684)	17

* * *

- EXPERIMENTAL SYSTEM: CYP3A4 (Homo sapiens, UniProt P08684)
- EXPERIMENT SUMMARY: Spectral binding (equilibrium) titrations of CYP3A4
- EXPERIMENTAL CONDITIONS: human, CYP3A4 protein solution (2 μM), pH 7.4, S50, 15 mM TEG; sigmoidal (Hill) fit

LINE NOTATION	EXPERIMENTAL SYSTEM	Kd [µM]
CC(=O)[C@H]1CC[C@H]2[C@@H]3CCC4=CC(=O)CC[C@]4(C)[C@H]3CC[C@]12C	CYP3A4 (Homo sapiens, UniProt P08684)	16

From: paper PMC12850010
